Recorded inhibition ratio of binding of F1024-1-3 antibody to human CD14 by entry
molecular target: F1024-1-3 antibody; assay: competition ELISA: 4-fold diluted serum mixed with 1 µg/mL peroxidase-labeled F1024-1-3 on immobilised human sCD14(1-356)
reported-metric: inhibition ratio of binding of F1024-1-3 antibody to human CD14 (%)

rhesus monkey soluble type CD14 (serum) (receptor) TTPEPCELDDEDFRCVCNFSEPHPDWSEAFQCVSAVEVEIRVGGLSLEPFLTRVDPDADPRQYADTIKALRVRRLTVGAAQVPAQLLVGALRVLAYSRLQELTLEDLEITGTMPPLPLEATGLALSSLRLHNVSWATGRSWLAELQQWLKPGLKVLSIAQAHSPAFSCEQVRAFPALTSLDLSDNPGLGERGLIAALCPHKFPALQNLALRNTGMETPTGVCAALAAAGVQPHSLDLSHNSLRATANPSAPRCMWSSALNSLNLSFAGLEQVPKGLPAKLRVLDLSCNRLNRRPRPDELPQVDNLALDGNPFLVPGTALPQEGSMN
44
human serum-derived soluble type CD14 (receptor) TTPEPCELDDEDFRCVCNFSEPQPDWSEAFQCVSAVEVEIHAGGLNLEPFLKRVDADADPRQYADTVKALRVRRLTVGAAQVPAQLLVGALRVLAYSRLKELTLEDLKITGTMPPLPLEATGLALSSLRLRNVSWATGRSWLAELQQWLKPGLKVLSIAQAHSPAFSCEQVRAFPALTSLDLSDNPGLGERGLMAALCPHKFPAIQNLALRNTGMETPTGVCAALAAAGVQPHSLDLSHNSLRATVNPSAPRCMWSSALNSLNLSFAGLEQVPKGLPAKLRVLDLSCNRLNRAPQPDELPEVDNLTLDGNPFLVPGTALPHEGSMNSGVVPACARSTLSVGVSGTLVL
83
crab-eating macaque soluble type CD14 (serum) (receptor) TTPEPCELDDEDFRCVCNFSEPHPDWSEAFQCVSAVEVEIRVGGLSLEPFLTRVDPDADPRQYADTIKALRVRRLTVGAAQVPAQLLVGALRVLAYSRLQELTLEDLEITGTMPPLPLEATGLALSSLRLHNVSWATGRSWLAELQQWLKPGLKVLSIAQAHSPAFSCEQVRAFPALTSLDLSDNPGLGERGLIAALCPHKFPALQNLALRNTGMETPTGVCAALAAAGVQPHSLDLSHNSLRATANPSAPRCMWSSALNSLNLSFAGLEQVPKGLPAKLRVLDLSCNRLNRRPRPDELPQVDNLALDGNPFLVPGTALPQEGSMN
57
rabbit soluble type CD14 (rabbit serum) (receptor, rabbit (New Zealand white), UniProt Q28680 18-342, looked up) STDTPEPCELDDDDIRCVCNFSDPQPDWSSALQCMPAVQVEMWGGGHSLEQFLRQADLYTDQRRYADVVKALRVRRLTVGAVQVPAPLLLGVLRVLGYSRLKELALEDIEVTGTAPPPPPLEATGPALSTLSLRNVSWPKGGAWLSELQQWLKPGLQVLNIAQAHTLAFSCEQVRTFSALTTLDLSENPGLGERGLVAALCPHKFPALQDLALRNAGMKTLQGVCAALAEAGVQPHHLDLSHNSLRADTQRCIWPSALNSLNLSFTGLQQVPKGLPAKLNVLDLSCNKLNRAPQPGELPKVVNLSLDGNPFLVPGASKLQEDLTN
52
